Experiment: autophagy modulators in MEF cells, primary screen, imaging, high-content, MEF GFP-LC3 (AID 463193);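 note: spot-positive cell cutoff set from DMSO-treated cells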
Conditions: MEF GFP-LC3 puncta imaging, at 10 µM; stronger effect = higher value
About 1,900 (1%) of roughly 190,000 compounds were called active. The list comes from a sample in which actives are over-represented; it also holds close analogues and randomly drawn compounds.
MEASURED_QUANTITY: % cells with GFP-LC3 spots (%)
Number only, in %; omit the unit.

Please report the measured % cells with GFP-LC3 spots for `CCCCN1C(=O)/C(=C/C=C2/C=Cc3ccccc3N2CC)SC1=S`
36.6

// fetch % cells with GFP-LC3 spots given entry `CCOc1ccccc1/C=c1\sc2nc(-c3ccco3)nn2c1=O`
23.9

Give me measured % cells with GFP-LC3 spots, please, for this compound: `CCOC(=O)/C(C#N)=C/c1cn(CCC(=O)O)nc1-c1ccc(Br)cc1`
0.855

Look up % cells with GFP-LC3 spots of `CCC(=O)/C=C1\Sc2ccccc2N1CC` and report it.
7.46

// Input: `Cc1cccc(-n2ncc3c(N4CCc5ccccc54)ncnc32)c1` . Output its % cells with GFP-LC3 spots only.
1.09

Indicate the recorded % cells with GFP-LC3 spots value for this compound: `O=C(NCCOc1ccccc1F)Nc1ccc(Br)cc1`
8.91

Indicate the recorded % cells with GFP-LC3 spots value for this compound: `CCN1/C(=C/c2ccc3ccc(C)cc3[n+]2CC)Sc2ccccc21`
42.4

Tell me measured % cells with GFP-LC3 spots for `COc1ccc(-n2ncc3c(N4CCCc5ccccc54)ncnc32)cc1` please.
7.91

Query % cells with GFP-LC3 spots for `CCCCN1C(=O)/C(=C2/C=CC=CN2C)SC1=S`
2.78

Please give the documented % cells with GFP-LC3 spots of `O=C(CCCN1C(=O)/C(=C/c2ccccc2)SC1=S)Nc1ccc(O)cc1`
5.17

Identify the reported % cells with GFP-LC3 spots for the following entry. CCOC(=O)C1=C(C)OC(N)=C(C#N)C1c1cncc(-c2ccc(F)cc2)c1 (stereo unspecified)
6.18
